Values compiled from paper PMC1472246.

testedTarget: the molecule itself
assayRemarks: AUC; sedimentation equilibrium at 20,000-35,000 rpm, 4 °C; 30 mM Tris pH 8.0, 150 mM NaCl, 1 mM TCEP; loading 12.46-13.65 μM; monomer/dimer equilibrium model, dimer to monomers; the paper notes that constants below 50-100 nM are not quite accurate
measuredAttribute: Kd (nM)
Number only, in nM; omit the unit.

**Query** Given the entry Munc13–1(3–150) (domain or fragment, rat, UniProt Q62768 3-150, looked up, Munc13-1, rat, residues 3-150 (C2A domain and C-terminal extension); Forms a homodimer (AUC); 15N-labelled for NMR; source: bacteria, GST fusion, purified (glutathione-Sepharose, GST cleaved, size-exclusion or ion-exchange chromatography)) LLCVGVKKAKFDGAQEKFNTYVTLKVQNVKSTTIAVRGSQPSWEQDFMFEINRLDLGLTVEVWNKGLIWDTMVGTVWIPLRTIRQSNEEGPGEWLTLDSQAIMADSEICGTKDPTFHRILLDAHFELPLDIPEEEARYWAKKLEQLNA , report its measured Kd.
**Result** 5.2

**Query** Given the entry Munc13–1(3–132) (domain or fragment, rat, UniProt Q62768 3-132, looked up, Forms a homodimer (AUC); source: bacteria, GST fusion, purified (glutathione-Sepharose, GST cleaved, size-exclusion or ion-exchange chromatography)) LLCVGVKKAKFDGAQEKFNTYVTLKVQNVKSTTIAVRGSQPSWEQDFMFEINRLDLGLTVEVWNKGLIWDTMVGTVWIPLRTIRQSNEEGPGEWLTLDSQAIMADSEICGTKDPTFHRILLDAHFELPLD , report its measured Kd.
**Result** 80

**Query** Given the entry Munc13–1(3–209) (domain or fragment, rat, UniProt Q62768 3-209, looked up, Munc13-1, rat, residues 3-209; Forms a homodimer (AUC); 15N-labelled for NMR; source: bacteria, GST fusion, purified (glutathione-Sepharose, GST cleaved, size-exclusion or ion-exchange chromatography)) LLCVGVKKAKFDGAQEKFNTYVTLKVQNVKSTTIAVRGSQPSWEQDFMFEINRLDLGLTVEVWNKGLIWDTMVGTVWIPLRTIRQSNEEGPGEWLTLDSQAIMADSEICGTKDPTFHRILLDAHFELPLDIPEEEARYWAKKLEQLNAMRDQDEYSFQDQQDKPLPVPSSQCCNWNYFGWGEQNDDPDSAVDDRDSDYRSETSNSIP , report its measured Kd.
**Result** 1.9

**Query** Given the entry Munc13–1(3–128) (domain or fragment, rat, UniProt Q62768 3-128, looked up, Cloned into a modified pGEX-KG vector with a TEV protease cleavage site; Forms a homodimer (AUC, crystal structure); 15N-labelled for NMR; also called Munc13–1 C2A domain; Munc13–1 C2A-domain homodimer; source: bacteria, GST fusion, purified (glutathione-Sepharose, GST cleaved, size-exclusion or ion-exchange chromatography)) LLCVGVKKAKFDGAQEKFNTYVTLKVQNVKSTTIAVRGSQPSWEQDFMFEINRLDLGLTVEVWNKGLIWDTMVGTVWIPLRTIRQSNEEGPGEWLTLDSQAIMADSEICGTKDPTFHRILLDAHFE , report its measured Kd.
**Result** 310
